So I've got a bunch of compounds here, and I need their EC50 values.
target: IP (Homo sapiens); assay: HTRF cAMP assay, recombinant human IP receptor stably expressed in CHO-K1 cells; format: cell-based; design: expressed in transfected cells; conditions: HTRF (cAMP) human IP receptor assay; mean of at least three determinations
Sequence (P43119 whole entry): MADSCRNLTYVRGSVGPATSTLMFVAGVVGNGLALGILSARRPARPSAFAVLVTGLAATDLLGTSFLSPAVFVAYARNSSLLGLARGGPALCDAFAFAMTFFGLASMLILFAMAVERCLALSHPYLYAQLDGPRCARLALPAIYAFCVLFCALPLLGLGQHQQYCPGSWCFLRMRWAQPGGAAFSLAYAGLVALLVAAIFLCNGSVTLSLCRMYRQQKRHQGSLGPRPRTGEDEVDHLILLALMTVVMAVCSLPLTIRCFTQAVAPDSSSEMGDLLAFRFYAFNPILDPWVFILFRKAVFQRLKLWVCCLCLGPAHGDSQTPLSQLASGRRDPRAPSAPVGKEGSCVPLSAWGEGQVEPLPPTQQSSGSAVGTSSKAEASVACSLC
Give the value; after it, write the unit.

Prompt line: Given the compound `O=C(O)COC[C@H]1CC[C@H](COC(=O)N(c2ccccc2)c2ccc(F)cc2)CC1` , write its reported EC50.
Response line: 6.6 nM

Prompt line: Given the compound `O=C(O)COC[C@H]1CC[C@@H](COC(=O)N(c2ccccc2)c2cccc(F)c2)CC1` , write its reported EC50.
Response line: 62 nM

Prompt line: Given the compound `O=C(O)COC[C@H]1CC[C@H](COC(=O)N(c2ccc(Cl)cc2)c2cccc(F)c2)CC1` , write its reported EC50.
Response line: 18.5 nM

Prompt line: Given the compound `O=C(O)COC[C@H]1CC[C@H](COC(=O)N(c2ccccc2)c2ccc(Cl)c(F)c2)CC1` , write its reported EC50.
Response line: 3.4 nM
